target: MBP-Rns (Escherichia coli, UniProt P16114, I14F/I17F); test: biochemical
pIC50: −log10 of the molar value.

{"test-smiles": "CCCCCCCCCC(=O)O", "pIC50": "< 2.00"}

* * *

molecular target: MBP-Rns (Escherichia coli, UniProt P16114, R75A); assay: biochemical
pIC50: −log10 of the molar value.

{"test-smiles": "CCCCCCCCCC(=O)O", "pIC50": "< 2.00"}
